- test target: human OX1 receptor (Homo sapiens, UniProt O43613)
- Construct: expressed in transfected cells; host or cells: CHO cells
- Sequence (O43613 whole entry): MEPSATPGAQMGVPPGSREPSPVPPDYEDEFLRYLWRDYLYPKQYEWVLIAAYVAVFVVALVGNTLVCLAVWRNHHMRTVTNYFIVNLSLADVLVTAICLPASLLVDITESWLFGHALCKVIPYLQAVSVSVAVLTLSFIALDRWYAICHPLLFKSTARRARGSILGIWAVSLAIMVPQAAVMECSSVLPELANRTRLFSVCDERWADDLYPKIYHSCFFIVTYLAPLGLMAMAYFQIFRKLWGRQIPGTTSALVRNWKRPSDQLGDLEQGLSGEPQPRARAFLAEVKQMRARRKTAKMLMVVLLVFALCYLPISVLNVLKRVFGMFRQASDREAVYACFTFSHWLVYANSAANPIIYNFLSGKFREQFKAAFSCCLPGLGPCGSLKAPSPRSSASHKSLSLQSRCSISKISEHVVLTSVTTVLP
- protocol details: Measurement of orexin receptor antagonistic activity (calcium fluorescence, FLIPRtetra)
- Assay type: cell-based
- experimental setup: CHO, 10 μM test compound; CHO cells expressing human OX1 receptor; OX-A 1 nM; read-out: Human Orexin1 receptor inhibition (at 10 μM)
Param threshold (20%) applies to inhibition at 10 µM; output true when value >= threshold, false when value < threshold.

(Q) Is inhibition at 10 µM at least 20%? Consider Cc1ncc(Cl)c(N2CCN(C(=O)c3cc(Cl)ccc3-n3nccn3)[C@H](C)CO2)n1
(A) true

(Q) Is inhibition at 10 µM at least 20%? Consider Cc1cc(N2CCN(C(=O)c3ccccc3-n3cccn3)CCO2)nc(C)n1
(A) false

(Q) Is inhibition at 10 µM at least 20%? Consider Cc1cc(C)nc(N2CCN(C(=O)c3ccccc3)CCO2)n1
(A) false

(Q) Is inhibition at 10 µM at least 20%? Consider Cc1nc(C(F)F)cc(N2CCN(C(=O)c3ccccc3-n3nccn3)C[C@H](C)O2)n1
(A) true

(Q) Is inhibition at 10 µM at least 20%? Consider Cc1cc(N2CCN(C(=O)c3cc(F)c(F)cc3-c3ncccn3)CCO2)nc(C)n1
(A) true

(Q) Is inhibition at 10 µM at least 20%? Consider Cc1cc(N2CCN(C(=O)c3ccccc3-n3nccn3)CCO2)nc(C)n1
(A) true

(Q) Is inhibition at 10 µM at least 20%? Consider Cc1cc(N2CCN(C(=O)c3cc(F)c(F)cc3-n3nccn3)C[C@H](C)O2)nc(C)n1
(A) true

(Q) Is inhibition at 10 µM at least 20%? Consider Cc1cc(C)nc(N2CCN(C(=O)c3ccccc3-c3ncc[nH]3)CCO2)n1
(A) false

---

- test target: human OX1 receptor (Homo sapiens)
- Construct: expressed in transfected cells; host or cells: CHO cells
- protocol details: Measurement of orexin receptor antagonistic activity (calcium fluorescence, FLIPRtetra)
- Format: cell-based
- experimental setup: CHO, read-out: Human Orexin1 receptor inhibition (at 10 μM)
I'd appreciate it if you could supply inhibition at 10 µM values for the items below.
// return the numeric value with its unit appended

(Q) Enter recorded inhibition at 10 µM with human OX1 receptor (Homo sapiens) for Cc1cc(C)nc(N2CCN(C(=O)c3cccc4ccn(C)c34)CCO2)n1 here.
(A) 53%

(Q) Enter recorded inhibition at 10 µM with human OX1 receptor (Homo sapiens) for Cc1ccc(-n2nccn2)c(C(=O)N2CCN(c3ccc(F)c(Cl)c3)OC[C@H]2C)c1 here.
(A) 92%

(Q) Enter recorded inhibition at 10 µM with human OX1 receptor (Homo sapiens) for Cc1cc(C)nc(N2CCN(C(=O)c3cccc4nn(C)cc34)CCO2)n1 here.
(A) 3%

(Q) Enter recorded inhibition at 10 µM with human OX1 receptor (Homo sapiens) for Cc1cc(C)nc(N2CCN(C(=O)c3cccc4ncccc34)CCO2)n1 here.
(A) 9%

(Q) Enter recorded inhibition at 10 µM with human OX1 receptor (Homo sapiens) for Cc1ccc(N2CCN(C(=O)c3cc(C)ccc3-n3nccn3)[C@H](C)CO2)nc1 here.
(A) 71%

(Q) Enter recorded inhibition at 10 µM with human OX1 receptor (Homo sapiens) for COc1cc2c(cc1C(=O)N1CCON(c3nc(C)cc(C)n3)CC1)CCC2 here.
(A) 12%

(Q) Enter recorded inhibition at 10 µM with human OX1 receptor (Homo sapiens) for Cc1cc(C)nc(N2CCN(C(=O)c3cccc4c3C(=O)N(C)C4)CCO2)n1 here.
(A) 6%

(Q) Enter recorded inhibition at 10 µM with human OX1 receptor (Homo sapiens) for Cc1cc(C)nc(N2CCN(C(=O)c3cccc4nsnc34)CCO2)n1 here.
(A) 13%

(Q) Enter recorded inhibition at 10 µM with human OX1 receptor (Homo sapiens) for COc1ccc(Cl)cc1C(=O)N1CCON(c2nc(C)cc(C)n2)CC1 here.
(A) 29%

(Q) Enter recorded inhibition at 10 µM with human OX1 receptor (Homo sapiens) for Cc1ccc(-n2nccn2)c(C(=O)N2CCN(c3cccc(-n4cccn4)n3)OC[C@H]2C)c1 here.
(A) 96%

(Q) Enter recorded inhibition at 10 µM with human OX1 receptor (Homo sapiens) for Cc1ccc(-n2nccn2)c(C(=O)N2CCN(c3cc(C)nc(C)c3)OC[C@H]2C)c1 here.
(A) 1%
